PROTOCOL TEXT: protease stability score; higher = more stable; yeast display proteolysis, trypsin and chymotrypsin;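 also: log10 excess protease needed over predicted unfolded state with 0 meaning unfolded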
MEASURED PARAMETER: protease stability score
Give bare numbers.

In the examples that follow, each entry is paired with its recorded protease stability score.
ITEM SEQUENCE | MEASURED PARAMETER | RESULT
DHDQRRQAKEMVHAMTKGDEDRLRELLDENAKADVGDSKVHGRTQFLRELRTTMEQSQLRLDSFDVKVKDGRVRMRFSFVEDHNGRPNHKNAELQLRLDNGKVQEVRQRDDG | protease stability score | 0.539
DHTAARIAKEIMENQDKGDEDRLRKLLDKDVRLKYGDKEIHGREHAARTLKRERRQIRIDRRIRHVEIQGDEVSIEFDMHVQHNGKPRDRKAVMVFRMQGDKLEEMTQDNTK | protease stability score | 0.191

Asked: Tell me the measured protease stability score of `DEHVNKLAHRLLEAIEEGNPEMFKELADEDVHFQVGDKSYHGMEDYANSIVEKLRQMHFEIKSYSFRNEPGRATLDLRVQMEHDGQPRESKNTVDVKAKNGRVKRVKFREKR` , please.
Given back: 0.155

The origin of these recorded values is the NTF2 design screens of Basanta et al. (2020).
